targetOrSystem: recombinant homotrimeric HA A/Anhui/1/05 H5N1 (Influenza A virus A/Anhui/1/2005(H5N1))
runDescription: protein microarray, purified IgG, trimeric HA
runParameters: remark: other sources report otherwise
// reported Trimeric HA Binding: RLU for each item listed
Numeric answer only, unit RLU assumed.

Please review the entries below; each comes with its answer.
Looking up TCN-535 (5246_P19) (antibody, V domains shown) VH: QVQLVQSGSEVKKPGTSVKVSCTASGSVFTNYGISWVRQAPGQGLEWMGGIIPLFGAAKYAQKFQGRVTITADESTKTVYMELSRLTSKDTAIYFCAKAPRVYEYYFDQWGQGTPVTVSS VL: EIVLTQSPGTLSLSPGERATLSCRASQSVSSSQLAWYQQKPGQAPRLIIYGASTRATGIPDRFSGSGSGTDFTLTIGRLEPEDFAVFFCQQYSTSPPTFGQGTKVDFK , I see its Trimeric HA Binding: RLU listed as 6700

Documented Trimeric HA Binding: RLU of TCN-539 (5056_A08) (antibody, V domains shown) VH: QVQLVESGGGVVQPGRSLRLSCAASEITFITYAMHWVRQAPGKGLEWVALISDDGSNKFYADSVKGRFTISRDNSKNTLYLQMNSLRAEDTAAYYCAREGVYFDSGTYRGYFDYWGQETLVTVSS VL: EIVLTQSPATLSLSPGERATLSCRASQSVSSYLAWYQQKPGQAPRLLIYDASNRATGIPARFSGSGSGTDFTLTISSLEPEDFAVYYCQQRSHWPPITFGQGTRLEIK : 570

From here, focus on the item given below.
binder TCN-557 (5081_A04) (antibody, V domains shown) VH: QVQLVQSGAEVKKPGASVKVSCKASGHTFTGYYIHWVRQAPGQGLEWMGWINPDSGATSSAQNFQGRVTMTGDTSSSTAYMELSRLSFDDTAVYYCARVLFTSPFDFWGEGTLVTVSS VL: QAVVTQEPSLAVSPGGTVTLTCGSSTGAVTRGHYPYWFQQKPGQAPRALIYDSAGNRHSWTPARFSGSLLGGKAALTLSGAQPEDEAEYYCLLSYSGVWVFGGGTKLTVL , Trimeric HA Binding: RLU observed: 22000

Origin of values: patent US20150086555A1
